# experiment summary: protein stability index of a GFP-peptide fusion (yeast GPS) (PSI 1-4); higher = more stable; sorted into four equal gates, so the index is relative within each strain
# run parameters: san1∆
measured attribute: protein stability index
One number for each entry.

Some sequences with known protein stability index results, for comparison:
KSPSLTAQKYPIYTGDG [YMR153W/NUP53] = 2.08
VFVGSGKGTGKTAMAEL [BRR2] = 3.44

Okay, here is my list. What is protein stability index for each of these?
1. TFIKDCLFTKCLEDPEK [POP4]
2. GANDLGFTASVSNQENA [MED1]
3. VPPTIAQFQYTLDRNTA [RPL8A]
4. ENSFYKKEASKTKWDRK [POP1]
5. SEPIKEIIDNWEKYEQS [FAS1]

1. 1.57
2. 2.93
3. 1.64
4. 2.3
5. 3.23
